The following binders are listed with their measured Trimeric HA Binding: RLU values.
# tgt: recombinant soluble homotrimeric HA, A/South Carolina/1/18 H1N1 (Influenza A virus A/South Carolina/1/18 (H1N1))
# assayExplanation: microarray, transfection SN IgG, trimeric HA
# setupConditions: remark: other sources report otherwise
# number only, unit RLU dropped from output

TCN-552 (5249_I23) (antibody, V domains shown) VH: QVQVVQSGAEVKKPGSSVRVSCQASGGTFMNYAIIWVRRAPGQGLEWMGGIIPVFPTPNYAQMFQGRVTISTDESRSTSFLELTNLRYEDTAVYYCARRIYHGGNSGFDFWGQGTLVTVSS VL: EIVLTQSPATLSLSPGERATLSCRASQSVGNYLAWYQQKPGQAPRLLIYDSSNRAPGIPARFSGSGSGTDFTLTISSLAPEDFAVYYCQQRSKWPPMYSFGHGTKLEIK; 37400

We next turn to a different binder, shown below.
input: Please look up its Trimeric HA Binding: RLU: TCN-504 (3251_K17) (antibody, V domains shown) VH: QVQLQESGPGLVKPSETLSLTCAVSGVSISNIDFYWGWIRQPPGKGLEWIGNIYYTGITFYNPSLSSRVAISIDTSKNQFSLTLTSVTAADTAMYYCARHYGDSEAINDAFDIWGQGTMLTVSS VL: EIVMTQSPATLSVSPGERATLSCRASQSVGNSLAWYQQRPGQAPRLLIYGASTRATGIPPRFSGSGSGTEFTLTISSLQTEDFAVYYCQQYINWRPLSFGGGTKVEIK
output: 32000
